- Tested on: MOLT-4
- Procedure Details: NCI tumour cell line growth inhibition, 48 h
The source made the active and inactive calls. Cut-off read from the data, not from the text of the source: active = GI50 up to about 1.1 µM and inactive = higher.
Your reply should match one of these outcome classes. 1 (yes) (active), 0 (no) (inactive)

Would you mind telling me which call this test gave COC1(OC)CC2C(=O)N(Cc3ccccc3)C1C(S(=O)(=O)c1ccccc1)C2C(C)S(=O)(=O)c1ccccc1 (stereo not given) ?
0 (no)

Would you mind telling me which call this test gave OC[C@H]1CC(c2nn[nH]n2)[C@H](O)[C@@H]1O (stereo not given in full) ?
0 (no)

Would you mind telling me which call this test gave C#CCNC(=O)NC(CCCCNC(=O)OCc1ccccc1)C(=O)OCc1ccccc1 (stereo not given) ?
0 (no)

Would you mind telling me which call this test gave CCCCCCc1ccc(O)cc1O ?
0 (no)

Would you mind telling me which call this test gave COC(=O)C(=O)C(C(=O)C=C(C)C)C(=O)C(=O)Nc1cccc(C(C)=O)c1 (stereo not given) ?
0 (no)

Would you mind telling me which call this test gave [O-][n+]1cn[n+]([O-])c2ccccc21 ?
0 (no)

Would you mind telling me which call this test gave O=C1NC(=O)c2ccccc2/C1=C/c1ccc2c(c1)OCO2 ?
0 (no)

Would you mind telling me which call this test gave N#CC1=C2SCCN2C(=O)C(C#N)C12CCCCC2 (stereo not given) ?
0 (no)

Would you mind telling me which call this test gave CCCOC1OC(CS(=O)(=O)O)C(OC(C)=O)C(OC(C)=O)C1OC(C)=O (stereo not given) ?
0 (no)

Would you mind telling me which call this test gave CC(=O)OC1C/C(C)=C/[C@H](O)CC(C)/C=C/[C@@]2(C)CCC(C(C)(C)O)C12 (stereo not given in full) ?
0 (no)

Would you mind telling me which call this test gave NC1=NS(=O)(=O)Nc2nc(-c3ccccc3)c(-c3ccccc3)nc21 ?
0 (no)

Would you mind telling me which call this test gave CCOC(=O)C(Cc1ccc2ccccc2c1)(Cc1ccc2ccccc2c1)C(C)=O ?
1 (yes)

Would you mind telling me which call this test gave Cc1ccc2c(=O)c(-c3nnsn3)c[nH]c2n1 ?
0 (no)

Would you mind telling me which call this test gave COc1ccc(OCC(=N/NC(=O)c2ccncc2)/N=C/c2ccncc2)cc1 ?
0 (no)

Would you mind telling me which call this test gave O=C(OCC(OC(=O)c1ccccc1)C(OC(=O)c1ccccc1)C(OC(=O)c1ccccc1)c1cnn(-c2ccccc2)n1)c1ccccc1 (stereo not given) ?
0 (no)

Would you mind telling me which call this test gave Clc1ccc(-c2nnc(-c3cccc4ccccc34)o2)cc1Cl ?
0 (no)

Would you mind telling me which call this test gave C=CC1(c2ccc(Br)cc2)OCCCO1 ?
0 (no)

Would you mind telling me which call this test gave CCOC(=O)[C@H]1Nc2ccc(C)cc2C2c3ccccc3CC21 (stereo not given in full) ?
0 (no)

Would you mind telling me which call this test gave COc1cc(OC)cc(Oc2nc3ccccc3nc2C(F)(F)F)c1 ?
0 (no)

Would you mind telling me which call this test gave COC(=O)C(/C(=N\O)C(=O)Nc1cccc(Cl)c1C)c1cnc2ccccc2n1 (stereo not given) ?
0 (no)

Would you mind telling me which call this test gave COc1ccc2nc3c(C(=O)NCCN(C)C)cccc3nc2c1 ?
0 (no)

Would you mind telling me which call this test gave COC(=O)C(=C\Sc1ccccc1)/C=C/C(=O)OC(C)(C)C ?
0 (no)

Would you mind telling me which call this test gave CCCC(=O)NC(Nc1ccc(S(=O)(=O)Nc2nc(C)cc(C)n2)cc1)(C(F)(F)F)C(F)(F)F ?
0 (no)

Would you mind telling me which call this test gave O=C(/C=C/c1ccsc1)c1ccc(Cl)s1 ?
0 (no)

Would you mind telling me which call this test gave CCOC(=O)C=C1CCC2(CC1)OCCO2 ?
0 (no)

Would you mind telling me which call this test gave Cc1ncc(CO)c(/C=N/CCCCCC/N=C/c2c(CO)cnc(C)c2[O-])c1[O-].[Mg+2] ?
0 (no)

Would you mind telling me which call this test gave S=c1sc2c(s1)SCCCCSCCCCSc1sc(=S)sc1SCCCCSCCCCS2 ?
0 (no)

Would you mind telling me which call this test gave Cc1ccc(NCCCN2CCN(CCCNc3ccc(C)c4sc5ccccc5c(=O)c34)CC2)c2c(=O)c3ccccc3sc12 ?
0 (no)

Would you mind telling me which call this test gave COc1cc(Oc2c(C)c(Cl)c(OC)c(Cl)c2OC)c2c(c1Cl)COC2=O ?
0 (no)

Would you mind telling me which call this test gave CCCCCCCCCCCCCCCCSS(C)(=O)=O ?
0 (no)

Would you mind telling me which call this test gave Nc1nc(-c2ccccc2)c(Cl)c(-c2cc(Cl)ccc2O)n1 ?
0 (no)

Would you mind telling me which call this test gave CC12OC3CC(O1)C1(C=O)C4CCC5(C)C(c6ccc(=O)oc6)CCC5(O)C4CCC1(C3)O2 (stereo not given) ?
1 (yes)

Would you mind telling me which call this test gave CN1CCN(C(=O)c2cn(Cc3cncn3Cc3ccc4c(c3)OCO4)cc2-c2cccc3ccccc23)CC1 ?
0 (no)

Would you mind telling me which call this test gave O=C1OC(c2ccccc2)=N/C1=C\c1ccc(N(CCCl)CCCl)cc1 ?
0 (no)

Would you mind telling me which call this test gave Nc1nc(O)c2c(ncn2CCO)n1 ?
0 (no)

* * *

- Test system: RPMI-8226
- Procedure Details: NCI tumour cell line growth inhibition, 48 h
Calls of active or inactive are those of the source. Rule as the data show it: active = GI50 up to about 1.1 µM and inactive = higher.
Your reply should match one of these outcome classes. active, inactive

Would you mind telling me which call this test gave CN(c1ccccc1)c1nc(=[N+]2CCCC2)ss1.[O-][Cl+3]([O-])([O-])[O-] ?
inactive

Would you mind telling me which call this test gave CCCCCCc1ccc(O)cc1O ?
inactive

Would you mind telling me which call this test gave O=C1C=CC(S(=O)(=O)C2=C/C(=C/Nc3ccc(Cl)cc3)C(=O)C=C2)=C/C1=C/Nc1ccc(Cl)cc1 ?
inactive

Would you mind telling me which call this test gave CC1CN=C(N(Cc2ccc(F)cc2)C(=O)Nc2ccc(Cl)cc2)S1 (stereo not given) ?
inactive

Would you mind telling me which call this test gave Cc1ccc(S(=O)(=O)N2c3ccccc3[C@H]3CCC=C[C@H]32)cc1 ?
inactive

Would you mind telling me which call this test gave O=C1CC(c2c(-c3ccccc3)[nH]c3ccccc23)C(=O)N1 (stereo not given) ?
inactive

Would you mind telling me which call this test gave COc1cc(C)c(/C=C/C(=O)N2C(=O)OC[C@@H]2c2ccccc2)c(C)c1 ?
inactive

Would you mind telling me which call this test gave Cn1c(O)c(C(=O)NC2CCCCC2)c(=O)n(C)c1=S ?
inactive

Would you mind telling me which call this test gave O=C(/C=C/c1ccsc1)c1ccc(Cl)s1 ?
inactive

Would you mind telling me which call this test gave Cc1ccccc1NC(=O)C1C(=O)N(c2ccccc2C)C(=O)/C1=N\NC(N)=S (stereo not given) ?
inactive

Would you mind telling me which call this test gave COc1ccc(/C=C2\CN(C)Cc3c2nc(O)c(C#N)c3-c2ccc(OC)cc2)cc1 ?
inactive

Would you mind telling me which call this test gave CC(C)(C)c1cc2c3c(c1)C(C(F)(F)F)(C(F)(F)F)O[Te]3(C)OC2(C(F)(F)F)C(F)(F)F ?
inactive

Would you mind telling me which call this test gave CCOC(=O)C1OC(C2(C)OC3(OC4(C=CC3O)OC(C(C)C(=O)C(C)C(O)C(C)CC(C)c3c(Cl)cc(C)c(O)c3C(=O)O)C(C)CC4C)C(C)C2OC)CC1O (stereo not given) ?
active

Would you mind telling me which call this test gave O=C1C(=C(C(F)(F)Cl)C(F)(F)Cl)C2CCC1C2 (stereo not given) ?
active

Would you mind telling me which call this test gave C=C1CC2(CC(c3ccccc3C)OC(c3ccccc3C)C2)OC1=O (stereo not given) ?
active

* * *

- System: IGROV-1
- Procedure Details: NCI tumour cell line growth inhibition, 48 h
Calls of active or inactive are those of the source. Rule as the data show it: active = GI50 up to about 1.1 µM and inactive = higher.
Value Type: GI50

Look at this compound and give its reported GI50. CC(C(=O)c1ccc(O)cc1)C1(O)C(=O)Nc2c(Cl)cc(Cl)cc21 (stereo unspecified)
> 100 µM (inactive)

Look at this compound and give its reported GI50. C/C(=N/NC(=S)N1CCCCCC1)c1ccccc1O
3.72 µM (inactive)

Look at this compound and give its reported GI50. CCc1nc(N)nc(N)c1-c1ccc(N(C)Cc2ccccc2)c([N+](=O)[O-])c1
0.128 µM (active)

Look at this compound and give its reported GI50. CC(C)Oc1cccc(N2C(NCc3c[nH]c4ccccc34)=Nc3ccncc3S2(=O)=O)c1
20.4 µM (inactive)

Look at this compound and give its reported GI50. O=C1C(Cl)C(c2cc(Br)ccc2O)N1n1cnc2ccccc2c1=O (stereo unspecified)
17.5 µM (inactive)

Look at this compound and give its reported GI50. CCOc1nc2c(N3CCCC3)nc(N3CCNCC3)nc2nc1NCc1ccccc1
1.19 µM (inactive)

* * *

Would you kindly list GI50 for each of these compounds?
- Test system: DLD-1
- Procedure Details: NCI tumour cell line growth inhibition, 48 h
The source made the active and inactive calls. Rule as the data show it: active = GI50 up to about 1.1 µM and inactive = higher.

Look at this compound and give its reported GI50. COc1cc2ccc3c4cc(OC)c(OCc5ccccc5)cc4cnc3c2cc1OC
> 100 µM (inactive)

Look at this compound and give its reported GI50. C#CCNC(=O)NC(CCCCNC(=O)OCc1ccccc1)C(=O)OCc1ccccc1 (stereo not drawn)
> 100 µM (inactive)

Look at this compound and give its reported GI50. CC(=O)OC1CC[C@@]2(C)C(CC(OC3OC(CO)C(O)C(O)C3O)[C@]3(C)C2CCC24CC23CC[C@H]4C(C)CC(O)[C@@H](O)C(C)(C)O)C1(C)C (stereo partly drawn)
15.5 µM (inactive)
